- measurementTarget: pooled human IgG (human IgG1, 2, 3 and 4)
# Enzyme Activity Endpoint Assay (purified): Fab′2 annotations
Please don't drop the unit; write it after the number.

Q: Tell me the measured Enzyme Activity Endpoint Assay (purified): Fab′2 of PRT-509 (protein) MITSVWTKGVTPPTDFRKIVDGNIAYYHAPYKAGQGWYDITKTFNGKDDLLCGAATAGNMLHWWFDQNKEEIEAYLKKHPEKQKIMFGDQELLDVRKVINTKDSQTNSALFNYFKDKAFPNLSARRLGVMPDLVLDMFINGYYLNVYKTQTTDVNRTYQTKDRRGGIFDAVFTRGDQSKLLTERHDFKEKTLKEISDLIKQELTEGKALGLSHTYANVRINHVINLWGADFDSNGNLEAIYVTDSDSNASIGMKKYFVGVNSAGKVAISAKEIKEDNIGAQVLGLFTLSTGQDIWNQTNLEHHHHHH , please.
Ans: 21 ng/µL

Q: Tell me the measured Enzyme Activity Endpoint Assay (purified): Fab′2 of PRT-397 (protein) MVTSVWTKGVTPPADFTQGEDVFHAPYVANQGWYDITKTFNGKDDLLCGAATAGNMLHWWFDQNKEYIEAYLKKHPEKQKIMFGDQELLDVRKAINTKGSQKNSELFNYFRDKAFPNLSARRLGVMPDLVLDMFINGYYLNVTKTQTTDVNRTYQEKDKRGGIFDAVFTRGDQSKLLTSRHDFKEKGLKEISDLIKQELTEGKALGLSHTYANVGINHVINLWGADFDSDGNLKAIYVTDSDSNASIGMKKYFVGVNSAGKVAISAKEIKEDNIGAQVLGLFTLSTGQDIWNQTN , please.
Ans: 102 ng/µL
